Each entry below carries its reported TGI.
System: SK-MEL-2 melanoma
Test: NCI tumour cell line growth inhibition, 48 h

Reference set (2 entries):
[[record]]
entry_smiles = "[O-][n+]1onc2c1/C(=N/O)CCC2"
observable = "TGI"
assay_result = "> 100 µM"

[[record]]
entry_smiles = "O=c1[nH]cnc2c1ncn2[C@@H]1C[C@H]1CO"
observable = "TGI"
assay_result = "> 100 µM"


API: the following record is the query input.
// field: TGI; key: O=S(O)CCCSSc1ccccc1 ; value = > 100 µM

---

# TGI annotations
Tested on: OVCAR-3 ovarian
Assay: NCI tumour cell line growth inhibition, 48 h

[[record]]
molecule = "COc1cc(/C=C2\\C(=O)N(C(=O)c3ccc(NC(C)=O)cc3)N=C2C)ccc1O"
assay_result = "> 100 µM"


# value of TGI, OVCAR-3 ovarian, item O=C1C2CN(Cc3ccccc3)CC1CN(CC1CC1)C2 = > 100 µM

Summary: CCCCCCCCCCCCCCCCOP(=O)(O)OP(=O)(O)OCC1OC(n2ccc(N)nc2=O)C(O)C1O (stereo not given) , OVCAR-3 ovarian, TGI = > 100 µM

O=S(O)CCCSSc1ccccc1 on OVCAR-3 ovarian gives TGI = > 100 µM

Item COc1cc(N(Cc2ccc3nc(OC)c(OC)nc3c2)Cc2ccc3nc(OC)c(OC)nc3c2)cc(OC)c1OC was tested on OVCAR-3 ovarian; the reported TGI is > 50 µM

---

System: A549 NSCLC
Assay: NCI tumour cell line growth inhibition, 48 h
observable: TGI

// known answers, use as guide
[[record]]
compound = "Nc1c(C(=O)c2ccc(CCCN3CCOCC3)cc2)cnn1-c1ccc(F)cc1"
observable = "TGI"
assay_result = "> 25 µM"

[[record]]
compound = "Br/C(=N\\Nc1nn[nH]n1)c1ccncc1"
observable = "TGI"
assay_result = "> 100 µM"

[[record]]
compound = "CC(C)(C)OC(=O)NC(CO)c1cccc(OCc2ccccc2)c1 (stereo not given)"
observable = "TGI"
assay_result = "> 100 µM"

[[record]]
compound = "Cc1nc2c(o1)C(=O)c1ccccc1C2=Nc1ccc(N2CCOCC2)cc1"
observable = "TGI"
assay_result = "17.8 µM"


Next, consider the following compound.
For COC(=O)[C@H](Cc1ccc(O)cc1)NC(=O)[C@@H](OC)[C@@H]1Cc2cc3cc(OC4CC(OC5CC(O)C(O)C(C)O5)C(O)C(C)O4)c(C)c(O)c3c(O)c2C(=O)[C@H]1OC1CC(OC2CC(OC3CC(C)(O)C(O)C(C)O3)C(O)C(C)O2)C(O)C(C)O1 (stereo not given in full) the compound record lists TGI as > 25 µM

---

Test system: RPMI-8226 leukemia
Test: NCI tumour cell line growth inhibition, 48 h
observable: TGI

[[record]]
compound = "O=C(Oc1ccc(Cl)cc1[N+](=O)[O-])c1ccccc1"
assay_result = "> 100 µM"

[[record]]
compound = "CCCCCCCC(=O)OCC1OC(OC)C(NC(=O)N(CCCl)N=O)C(O)C1O (stereo not drawn)"
assay_result = "53.1 µM"

[[record]]
compound = "O=C1CC(O)(c2ccccc2)C(c2ccccc2)=C1c1ccccc1 (stereo not drawn)"
assay_result = "57.7 µM"

[[record]]
compound = "CCOP(=O)(OCC)C(C(=O)OC)C(=O)C(=O)Nc1c(C)cc(Br)cc1C (stereo not drawn)"
assay_result = "> 100 µM"

[[record]]
compound = "COc1ccc(C=C(c2ccc(OCc3ccccc3)cc2)c2ccc(OCc3ccccc3)cc2)cc1"
assay_result = "> 100 µM"


Given item Cc1ccc(NC2=N/C(=C/c3ccccc3)C(Cl)=N2)cc1 , the value recorded as its TGI is > 100 µM

Field TGI (entry Clc1ccc(-c2ccc(-c3nn4c(CNc5ccccc5)nnc4s3)o2)c(Cl)c1 ) reads > 100 µM

Record O=C(Nc1ccc(Cl)c(Cl)c1)N1N=C2c3ccccc3CCC2C1c1ccc(Cl)cc1 (stereo not drawn) , field TGI: > 100 µM

---

// reported TGI per item
Test system: PC-3 prostate
Assay: NCI tumour cell line growth inhibition, 48 h

Reported TGI of CN(C)Cc1cc(C=O)cc(CN(C)C)c1O : > 100 µM

So for Cc1nc2ccccc2c(=O)n1NC(=S)Nc1ccc(Cl)cc1[N+](=O)[O-] , the logged TGI turned out to be > 100 µM

Record summary for Cc1ccc(NC2=N/C(=C/c3ccccc3)C(Cl)=N2)cc1 : reported TGI = > 100 µM

---

Quick list: TGI per entry.
Test system: CCRF-CEM leukemia
Experiment: NCI tumour cell line growth inhibition, 48 h

The compound O=C(/C=C/c1ccccc1)N1CCCCC1 on CCRF-CEM leukemia: TGI was > 100 µM

Assay CCRF-CEM leukemia, sample O=C(Oc1ccc(Cl)cc1[N+](=O)[O-])c1ccccc1 , TGI read: > 100 µM

With CCRF-CEM leukemia as the test system, O=[N+]([O-])c1cc(Cl)cc2cc(Br)cnc12 showed TGI of > 31.6 µM

---

Test system: PC-3 prostate
Experiment: NCI tumour cell line growth inhibition, 48 h
observable: TGI (µM)
The figure you give is taken to be in µM; do not add the unit.

[[record]]
compound = "C=C(C)[C@@H]1CC[C@]2(CO)CC[C@]3(C)[C@H](CC[C@@H]4[C@@]5(C)CCC(NCCc6ccc(O)cc6)C(C)(C)[C@@H]5CC[C@]43C)[C@@H]12 (stereo partly drawn)"
observable = "TGI"
assay_result = 2.64


Proceed to the following item.
Reported TGI ( COC(=O)/C=C(\S/C(=N\n1cc(C(=O)OC)c(C(=O)OC)c1-c1ccc(C)cc1)c1ccc(C)cc1)C(=O)OC ) = 10.3

---

Test system: IGROV1 ovarian
Experiment: NCI tumour cell line growth inhibition, 48 h
observable: TGI

Below are worked cases with known answers.
[[record]]
molecule = "N#CCC(=O)N/N=C(\\C(=O)Nc1ccc(Cl)c(Cl)c1)C1CN(c2ccccc2)N=C1N (stereo unspecified)"
assay_result = "> 100 µM"

[[record]]
molecule = "CC(=O)O[C@H]1C(=O)[C@@]2(C)[C@H]([C@H](OC(=O)c3ccccc3)[C@]3(O)C[C@H](OC(=O)[C@H](O)[C@@H](NC(=O)C(C)(C)C)c4ccccc4)C(C)=C1C3(C)C)[C@]1(OC(C)=O)CO[C@@H]1C[C@@H]2O"
assay_result = "> 10 µM"

[[record]]
molecule = "O=c1[nH]cnc2c1CCCN2"
assay_result = "> 100 µM"

[[record]]
molecule = "O=C(Nc1ccc(Cl)c(Cl)c1)N1N=C2c3ccccc3CCC2C1c1ccc(Cl)cc1 (stereo unspecified)"
assay_result = "> 100 µM"

[[record]]
molecule = "O=C(CCC(C(=O)c1ccccc1)c1ccccc1)c1ccccc1 (stereo unspecified)"
assay_result = "> 100 µM"


So the reported TGI for C=CN(C)S(C)(=O)=O , on IGROV1 ovarian, turned out to be > 100 µM

Readout TGI for C=C1C(=O)OC2CC1CCC1(C)OC1CCC(C)=CCCC2(C)O (stereo unspecified) , test system IGROV1 ovarian, was 15.8 µM

Item CC(=O)NNC(=O)C1CCCCN1 (stereo unspecified) was tested on IGROV1 ovarian; the reported TGI is > 100 µM

Log: IGROV1 ovarian, molecule COc1cc(O)c2c(c1)C(=O)c1cc3c(c(O)c1C2=O)C(OC1OC(C)C(O)C(O)C1OC)C(OC)C(C)(O)C3=O (stereo unspecified) , TGI = 7.16 µM

O[C@@H]1C[C@H]2N3CC[C@@]2(c2cc4c(cc2C3)OCO4)[C@H]2O[C@@H]12 on IGROV1 ovarian gives TGI = > 100 µM

Record Cc1nc(C(N)=S)sc1C(=O)CC(=O)C(=O)Nc1nc2ccccc2[nH]1 has IGROV1 ovarian TGI equal to > 100 µM

---

Tested on: PC-3 prostate
Experiment: NCI tumour cell line growth inhibition, 48 h; in the data active means GI50 below about 0.43 µM; inactive means the rest
Form entry, call: pick from y (active), n (inactive)

Use these answered entries as a reference point.
[[record]]
compound = "Cc1cc(Oc2ccc3nc(COc4ccc(CC5SC(=O)NC5=O)cc4)n(C)c3c2)cc(C)c1N (centres undefined)"
category_label = "n"

[[record]]
compound = "COc1ccc(-c2c(-c3cc(OC)c(OC)c(OC)c3)noc2N)cc1"
category_label = "y"

[[record]]
compound = "O=C(NCc1ccco1)c1ccc(NC2=C(Cl)C(=O)N(Cc3ccccc3)C2=O)cc1"
category_label = "n"

[[record]]
compound = "CC1=C([Te]c2ccc(O)cc2)C(=O)c2ccccc2C1=O"
category_label = "n"

[[record]]
compound = "C=CN(C)S(C)(=O)=O"
category_label = "n"


// next entry
Q: Per the assay record, what outcome was assigned to O=C(NN=C1CCCCC1)c1[nH]c2ccc(F)cc2c1-c1ccccc1 ?
Ans: n

---

Tested on: DU-145 prostate
Test: NCI tumour cell line growth inhibition, 48 h; in the data active means GI50 below about 0.43 µM; inactive means the rest
Lab note: assign the record to one of yes (1) for active, no (0) for inactive

Known results for compounds:
[[record]]
compound = "CCN(CC)CCCC(C)N=c1cc(Nc2cc(=NC(C)CCCN(CC)CC)c3cc(OC)ccc3o2)oc2ccc(OC)cc12 (stereo not drawn)"
category_label = "no (0)"

[[record]]
compound = "OCC1OC(n2cnc3c(Cl)nc(Cl)cc32)C(O)C1O (stereo not drawn)"
category_label = "no (0)"

[[record]]
compound = "COc1cnc2c(c1)C(=O)c1c-2n(CCCNC(C)C)c(=O)c2cc(F)ccc12"
category_label = "yes (1)"


Q: Each compound tested received a call. Report the one for c1ccc(CN=C(NCc2ccccc2)NCc2ccccc2)cc1 .
Ans: no (0)
